- measured on: HLA-DP DPA1*01:03/DPB1*02:01 (Homo sapiens, UniProt P04440+P20036, A65V/A84D/A85E/K98E)
- assay procedure: biochemical
- Format: binding
- run conditions: read-out: Binding capacity/IC50 (nM) DPA1*01:03 DPB1*02:01
measured endpoint: IC50
# do not omit the unit; it follows the number

Query block: Item: CC(C)C[C@H](NC(=O)[C@H](CCCCN)NC(=O)[C@@H](NC(=O)[C@H](CC(C)C)NC(=O)[C@@H]1CCCN1C(=O)[C@@H]1CCCN1C(=O)[C@@H](NC(=O)[C@H](CC(N)=O)NC(=O)[C@@H](NC(=O)[C@H](Cc1ccccc1)NC(=O)[C@H](CCC(=O)O)NC(=O)[C@H](Cc1c[nH]c2ccccc12)NC(=O)[C@@H](N)CCC(=O)O)C(C)C)[C@@H](C)O)C(C)C)C(=O)N[C@@H](Cc1c[nH]c2ccccc12)C(=O)N[C@@H](Cc1ccc(O)cc1)C(N)=O Test system: HLA-DP DPA1*01:03/DPB1*02:01 (Homo sapiens, UniProt P04440+P20036, A65V/A84D/A85E/K98E) Read-out: IC50 Value: ?
Result block: 639 nM

* * *

Exercise: for every item that follows, state its recorded pIC50.
- measured on: HLA-DP DPA1*02:01/DPB1*01:01 (Homo sapiens, UniProt P04440+P20036, F191V/F38Y/F64Y/G113D/G114E/K142R/L158P/L37V/M105V/M116V/M62Q/P115A/Q81R/R125K/R223Q/T114A/T199I/T259P)
- assay procedure: biochemical
Give bare numbers, as −log10 of the molar value.

Illustrative cases are given below, each with its answer.
smiles representation	endpoint result
CSCC[C@H](NC(=O)[C@H](CCCCN)NC(=O)[C@H](C)NC(=O)[C@H](Cc1ccc(O)cc1)NC(=O)[C@H](CCCCN)NC(=O)CNC(=O)[C@@H](NC(=O)[C@H](CCCCN)NC(=O)[C@H](CC(C)C)NC(=O)[C@H](CC(N)=O)NC(=O)[C@H](CCCCN)NC(=O)[C@H](Cc1ccccc1)NC(=O)[C@@H]1CCCN1C(=O)[C@H](CCC(=O)O)NC(=O)[C@@H](N)CCC(N)=O)[C@@H](C)O)C(N)=O	6.52
CC[C@H](C)[C@H](NC(=O)CNC(=O)[C@H](CCCCN)NC(=O)[C@H](Cc1c[nH]cn1)NC(=O)[C@H](C)NC(=O)[C@@H]1CCCN1C(=O)[C@@H](NC(=O)[C@H](Cc1c[nH]c2ccccc12)NC(=O)[C@H](CO)NC(=O)[C@H](CC(C)C)NC(=O)[C@H](Cc1ccc(O)cc1)NC(=O)[C@@H](NC(=O)[C@H](CCCCN)NC(=O)[C@H](CCC(=O)O)NC(=O)[C@@H](N)CCCCN)C(C)C)C(C)C)C(=O)NCC(=O)NCC(=O)N[C@@H](CC(N)=O)C(=O)N[C@@H](CCC(=O)O)C(N)=O	6.23
CC(C)C[C@H](NC(=O)[C@H](CCCCN)NC(=O)[C@@H](NC(=O)[C@H](CC(C)C)NC(=O)[C@@H]1CCCN1C(=O)[C@@H]1CCCN1C(=O)[C@@H](NC(=O)[C@H](CC(N)=O)NC(=O)[C@@H](NC(=O)[C@H](Cc1ccccc1)NC(=O)[C@H](CCC(=O)O)NC(=O)[C@H](Cc1c[nH]c2ccccc12)NC(=O)[C@@H](N)CCC(=O)O)C(C)C)[C@@H](C)O)C(C)C)C(=O)N[C@@H](Cc1c[nH]c2ccccc12)C(=O)N[C@@H](Cc1ccc(O)cc1)C(N)=O	7.00

Query block: Any idea what its pIC50 is? The compound is CC[C@H](C)[C@H](NC(=O)[C@@H]1CCCN1C(=O)[C@H](CCC(=O)O)NC(=O)[C@@H](N)CCCCN)C(=O)N[C@H](C(=O)NCC(=O)N[C@@H](C)C(=O)N[C@@H](CCC(=O)O)C(=O)N[C@H](C(=O)N[C@@H](Cc1ccccc1)C(=O)N[C@@H](Cc1ccc(O)cc1)C(=O)N[C@H](C(=O)N[C@@H](CC(=O)O)C(=O)NCC(=O)N[C@@H](C)C(N)=O)C(C)C)[C@@H](C)O)C(C)C
Result block: 6.69

* * *

- measured on: HLA-DP DPA1*02:01/DPB1*14:01 (Homo sapiens, UniProt P04440+P20036, A65V/A84D/A85E/E86D/F191V/F38H/G113D/G114E/G40L/I94L/K142R/L158P/L37V/M105V/M116V/M62Q/P115A/Q81R/R125K/T114A/T199I/T259P)
- Sequence (P20036 29-260 A42M/M62Q/Q81R/T114A/K142R/L158P/F191V/T259P): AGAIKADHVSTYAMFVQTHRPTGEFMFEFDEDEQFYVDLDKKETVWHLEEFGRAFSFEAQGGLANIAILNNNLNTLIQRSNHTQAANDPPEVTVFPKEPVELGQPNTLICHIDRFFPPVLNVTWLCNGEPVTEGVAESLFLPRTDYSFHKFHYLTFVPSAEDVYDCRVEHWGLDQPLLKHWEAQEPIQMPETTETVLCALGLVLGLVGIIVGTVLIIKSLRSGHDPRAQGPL
- Sequence (P04440 30-258 L37V/F38H/G40L/A65V/A84D/A85E/E86D/I94L/M105V/G113D/G114E/P115A/M116V/R125K/T199I/R223Q): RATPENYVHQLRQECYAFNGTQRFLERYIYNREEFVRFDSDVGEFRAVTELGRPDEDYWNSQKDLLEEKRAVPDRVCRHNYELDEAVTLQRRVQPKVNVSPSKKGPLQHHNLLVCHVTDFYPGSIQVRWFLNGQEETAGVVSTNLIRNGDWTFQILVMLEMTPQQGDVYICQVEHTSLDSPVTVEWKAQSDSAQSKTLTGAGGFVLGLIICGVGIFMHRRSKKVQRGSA
- assay procedure: biochemical
- Format: binding
- run conditions: read-out: Binding capacity/IC50 (nM) DPA1*02:01 DPB1*14:01
measured endpoint: IC50 (nM)
Give bare numbers, in nM.

smiles representation	display unit	endpoint result
CC(C)C[C@H](NC(=O)[C@H](CCCCN)NC(=O)[C@@H](NC(=O)[C@H](CC(C)C)NC(=O)[C@@H]1CCCN1C(=O)[C@@H]1CCCN1C(=O)[C@@H](NC(=O)[C@H](CC(N)=O)NC(=O)[C@@H](NC(=O)[C@H](Cc1ccccc1)NC(=O)[C@H](CCC(=O)O)NC(=O)[C@H](Cc1c[nH]c2ccccc12)NC(=O)[C@@H](N)CCC(=O)O)C(C)C)[C@@H](C)O)C(C)C)C(=O)N[C@@H](Cc1c[nH]c2ccccc12)C(=O)N[C@@H](Cc1ccc(O)cc1)C(N)=O	nM	1200

Now examine the next entry.
Query block: Any idea what its IC50 is? The compound is CC[C@H](C)[C@H](NC(=O)[C@@H](NC(=O)[C@H](CCCCN)NC(=O)[C@@H](NC(=O)[C@@H]1CCCN1C(=O)[C@H](Cc1c[nH]c2ccccc12)NC(=O)[C@H](CCCNC(=N)N)NC(=O)CNC(=O)[C@H](C)NC(=O)[C@H](CC(C)C)NC(=O)[C@H](CCCCN)NC(=O)[C@H](CC(C)C)NC(=O)[C@@H](NC(=O)[C@H](Cc1ccccc1)NC(=O)[C@H](Cc1ccc(O)cc1)NC(=O)[C@H](C)NC(=O)[C@@H](NC(=O)[C@@H](N)CCC(=O)O)[C@@H](C)O)[C@@H](C)CC)C(C)C)C(C)C)C(N)=O
Result block: 12800

* * *

Exercise: for every item that follows, state its recorded IC50.
- measured on: HLA-DR DRB1*15:01 (Homo sapiens, UniProt P01903+P01911)
- assay procedure: biochemical
- Format: binding
- run conditions: read-out: Binding capacity/IC50 (nM) DRB1*15:01
Ends that are not written are not given here.
Give bare numbers, in nM.

substance	measured on	endpoint result
IVALIIAIVVWTIV-NH2 [vpu(13-26)]	HLA-DR DRB1*15:01 (Homo sapiens, UniProt P01903+P01911)	2030
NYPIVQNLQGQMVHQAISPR-NH2 [p17(131-132)/p24(1-18)]	HLA-DR DRB1*15:01 (Homo sapiens, UniProt P01903+P01911)	211
SEELRSLYNTVATLYCVHQ-NH2 [p17(72-90)]	HLA-DR DRB1*15:01 (Homo sapiens, UniProt P01903+P01911)	143
VGSLQYLALTALITPKK-NH2 [vif(142-158)]	HLA-DR DRB1*15:01 (Homo sapiens, UniProt P01903+P01911)	3.8
YAKMRSAHTNDVKQL-NH2 [RT(354-368)]	HLA-DR DRB1*15:01 (Homo sapiens, UniProt P01903+P01911)	773

Now examine the next entry.
Query block: Any idea what its IC50 is? The substance is EAVRHFPRPWLHGL-NH2 [vpr(29-42)]
Result block: 112
